Test system: OVCAR-5 complex spheroid (HUVEC/MSC), viability % T/C
Assay: Anticancer human tumor OVCAR-5 cell line growth inhibition [Asc];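 note: spheroids exposed to agents for 7 days before readout; 100% = DMSO vehicle-treated wells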
Details: second compound 3 µM; first compound 1 µM; stronger effect = lower value
Endpoint: viability, T/C (%)
# value in %; strip the unit string

Task: What measured viability, T/C goes with O=C(c1ccc(F)c(F)c1Nc1ccc(I)cc1F)N1CC(O)([C@@H]2CCCCN2)C1 + CCN1C(C(=O)NC23CCC(C(=O)O)(CC2)CC3)C(c2cccc(Cl)c2F)C2(C(=O)Nc3cc(Cl)ccc32)C12CCCCC2 ?
Output: 28.8

Task: Could you do the same for O=C(c1cc(Cc2n[nH]c(=O)c3ccccc23)ccc1F)N1CCN(C(=O)C2CC2)CC1 + CCN1C(C(=O)NC23CCC(C(=O)O)(CC2)CC3)C(c2cccc(Cl)c2F)C2(C(=O)Nc3cc(Cl)ccc32)C12CCCCC2 , please?
Output: 96.5

Task: Could you do the same for CCN1CCN(Cc2ccc(Nc3ncc(F)c(-c4cc(F)c5nc(C)n(C(C)C)c5c4)n3)nc2)CC1 + CCN1C(C(=O)NC23CCC(C(=O)O)(CC2)CC3)C(c2cccc(Cl)c2F)C2(C(=O)Nc3cc(Cl)ccc32)C12CCCCC2 , please?
Output: 64.2

Task: Could you do the same for C=CC(=O)N1CCN(c2nc(=O)n(-c3c(C)ccnc3C(C)C)c3nc(-c4c(O)cccc4F)c(F)cc23)C(C)C1 (stereo not given) + CCN1C(C(=O)NC23CCC(C(=O)O)(CC2)CC3)C(c2cccc(Cl)c2F)C2(C(=O)Nc3cc(Cl)ccc32)C12CCCCC2 , please?
Output: 111

Task: Could you do the same for COc1c(OCCCN2CCOCC2)ccc2c3n(c(=NC(=O)c4cnc(N)nc4)nc12)CCN3 + CCN1C(C(=O)NC23CCC(C(=O)O)(CC2)CC3)C(c2cccc(Cl)c2F)C2(C(=O)Nc3cc(Cl)ccc32)C12CCCCC2 , please?
Output: 8.71

* * *

Test system: OVCAR-5 complex spheroid (HUVEC/MSC), viability % T/C
Experiment: Anticancer human tumor OVCAR-5 cell line growth inhibition [Asc];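 note: spheroids exposed to agents for 7 days before readout; 100% = DMSO vehicle-treated wells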
Conditions: second compound 1 µM; first compound 0.01 µM; stronger effect = lower value
Endpoint: viability, T/C (%)
# value in %; strip the unit string

Task: What measured viability, T/C goes with Cn1ncnc1[C@H]1c2n[nH]c(=O)c3cc(F)cc(c23)N[C@@H]1c1ccc(F)cc1 + CNC(C)C(=O)NC1CN(S(=O)(=O)c2cccc(S(=O)(=O)N3CCC4CCC(C(=O)NC(c5ccccc5)c5ccccc5)N4C(=O)C(NC(=O)C(C)NC)C3)c2)CCC2CCC(C(=O)NC(c3ccccc3)c3ccccc3)N2C1=O ?
Output: 72.7

Task: Could you do the same for COc1c(OCCCN2CCOCC2)ccc2c3n(c(=NC(=O)c4cnc(N)nc4)nc12)CCN3 + CNC(C)C(=O)NC1CN(S(=O)(=O)c2cccc(S(=O)(=O)N3CCC4CCC(C(=O)NC(c5ccccc5)c5ccccc5)N4C(=O)C(NC(=O)C(C)NC)C3)c2)CCC2CCC(C(=O)NC(c3ccccc3)c3ccccc3)N2C1=O , please?
Output: 56.1

Task: Could you do the same for COc1c(OCCCN2CCOCC2)ccc2c3n(c(=NC(=O)c4cnc(N)nc4)nc12)CCN3 + Cc1c(S(C)(=O)=O)c(-c2cc(F)cc(N3CCN(c4ccc(NS(=O)(=O)c5ccc(NC(CCN6CCC(C(=O)OCCCP(=O)(O)O)CC6)CSc6ccccc6)c(S(=O)(=O)C(F)(F)F)c5)cc4)CC3)c2)c(-c2ccc(Cl)cc2)n1C(C)C , please?
Output: 65.4

Task: Could you do the same for O=C(c1ccc(F)c(F)c1Nc1ccc(I)cc1F)N1CC(O)([C@@H]2CCCCN2)C1 + CNC(C)C(=O)NC1CN(S(=O)(=O)c2cccc(S(=O)(=O)N3CCC4CCC(C(=O)NC(c5ccccc5)c5ccccc5)N4C(=O)C(NC(=O)C(C)NC)C3)c2)CCC2CCC(C(=O)NC(c3ccccc3)c3ccccc3)N2C1=O , please?
Output: 76.9

Task: Could you do the same for Cn1ncnc1[C@H]1c2n[nH]c(=O)c3cc(F)cc(c23)N[C@@H]1c1ccc(F)cc1 + Cc1c(S(C)(=O)=O)c(-c2cc(F)cc(N3CCN(c4ccc(NS(=O)(=O)c5ccc(NC(CCN6CCC(C(=O)OCCCP(=O)(O)O)CC6)CSc6ccccc6)c(S(=O)(=O)C(F)(F)F)c5)cc4)CC3)c2)c(-c2ccc(Cl)cc2)n1C(C)C , please?
Output: 91.7

Task: Could you do the same for O=C(c1ccc(F)c(F)c1Nc1ccc(I)cc1F)N1CC(O)([C@@H]2CCCCN2)C1 + Cc1c(S(C)(=O)=O)c(-c2cc(F)cc(N3CCN(c4ccc(NS(=O)(=O)c5ccc(NC(CCN6CCC(C(=O)OCCCP(=O)(O)O)CC6)CSc6ccccc6)c(S(=O)(=O)C(F)(F)F)c5)cc4)CC3)c2)c(-c2ccc(Cl)cc2)n1C(C)C , please?
Output: 95

Task: Could you do the same for NC1CCC(NC2CC2c2ccccc2)CC1 (configuration not stated) + Cc1c(S(C)(=O)=O)c(-c2cc(F)cc(N3CCN(c4ccc(NS(=O)(=O)c5ccc(NC(CCN6CCC(C(=O)OCCCP(=O)(O)O)CC6)CSc6ccccc6)c(S(=O)(=O)C(F)(F)F)c5)cc4)CC3)c2)c(-c2ccc(Cl)cc2)n1C(C)C , please?
Output: 81

* * *

Tested on: OVCAR-5 complex spheroid (HUVEC/MSC), viability % T/C
Experiment: Anticancer human tumor OVCAR-5 cell line growth inhibition [Asc];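 note: spheroids exposed to agents for 7 days before readout; 100% = DMSO vehicle-treated wells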
Conditions: second compound 10 µM; first compound 0.0316 µM; stronger effect = lower value
Endpoint: viability, T/C (%)
# value in %; strip the unit string

Task: What measured viability, T/C goes with C#Cc1c(F)ccc2cc(O)cc(-c3ncc4c(N5CC6CCC(C5)N6)nc(OCC56CCCN5CC(F)C6)nc4c3F)c12 (stereo not given) + Cc1c(S(C)(=O)=O)c(-c2cc(F)cc(N3CCN(c4ccc(NS(=O)(=O)c5ccc(NC(CCN6CCC(C(=O)OCCCP(=O)(O)O)CC6)CSc6ccccc6)c(S(=O)(=O)C(F)(F)F)c5)cc4)CC3)c2)c(-c2ccc(Cl)cc2)n1C(C)C ?
Output: 133

Task: Could you do the same for NC1CCC(NC2CC2c2ccccc2)CC1 (stereo not given) + Cc1c(S(C)(=O)=O)c(-c2cc(F)cc(N3CCN(c4ccc(NS(=O)(=O)c5ccc(NC(CCN6CCC(C(=O)OCCCP(=O)(O)O)CC6)CSc6ccccc6)c(S(=O)(=O)C(F)(F)F)c5)cc4)CC3)c2)c(-c2ccc(Cl)cc2)n1C(C)C , please?
Output: 104

Task: Could you do the same for CCN1CCN(Cc2ccc(Nc3ncc(F)c(-c4cc(F)c5nc(C)n(C(C)C)c5c4)n3)nc2)CC1 + Cc1c(S(C)(=O)=O)c(-c2cc(F)cc(N3CCN(c4ccc(NS(=O)(=O)c5ccc(NC(CCN6CCC(C(=O)OCCCP(=O)(O)O)CC6)CSc6ccccc6)c(S(=O)(=O)C(F)(F)F)c5)cc4)CC3)c2)c(-c2ccc(Cl)cc2)n1C(C)C , please?
Output: 81.5

Task: Could you do the same for O=C(c1ccc(F)c(F)c1Nc1ccc(I)cc1F)N1CC(O)([C@@H]2CCCCN2)C1 + Cc1c(S(C)(=O)=O)c(-c2cc(F)cc(N3CCN(c4ccc(NS(=O)(=O)c5ccc(NC(CCN6CCC(C(=O)OCCCP(=O)(O)O)CC6)CSc6ccccc6)c(S(=O)(=O)C(F)(F)F)c5)cc4)CC3)c2)c(-c2ccc(Cl)cc2)n1C(C)C , please?
Output: 78.8

Task: Could you do the same for C=CC(=O)N1CCN(c2nc(=O)n(-c3c(C)ccnc3C(C)C)c3nc(-c4c(O)cccc4F)c(F)cc23)C(C)C1 (stereo not given) + Cc1c(S(C)(=O)=O)c(-c2cc(F)cc(N3CCN(c4ccc(NS(=O)(=O)c5ccc(NC(CCN6CCC(C(=O)OCCCP(=O)(O)O)CC6)CSc6ccccc6)c(S(=O)(=O)C(F)(F)F)c5)cc4)CC3)c2)c(-c2ccc(Cl)cc2)n1C(C)C , please?
Output: 119

* * *

Tested on: OVCAR-5 complex spheroid (HUVEC/MSC), viability % T/C
Assay: Anticancer human tumor OVCAR-5 cell line growth inhibition [Asc];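 note: spheroids exposed to agents for 7 days before readout; 100% = DMSO vehicle-treated wells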
Conditions: second compound 0.949 µM; first compound 0.316 µM; stronger effect = lower value
For each record, write down the corresponding viability, T/C.
# value in %; strip the unit string

Task: What measured viability, T/C goes with CCN1CCN(Cc2ccc(Nc3ncc(F)c(-c4cc(F)c5nc(C)n(C(C)C)c5c4)n3)nc2)CC1 + CCN1C(C(=O)NC23CCC(C(=O)O)(CC2)CC3)C(c2cccc(Cl)c2F)C2(C(=O)Nc3cc(Cl)ccc32)C12CCCCC2 ?
Output: 69.1

Task: Could you do the same for C=C(F)C(=O)N1CCN(c2nc(OCC3CCCN3C)nc3c2CCN(c2cccc4cccc(Cl)c24)C3)CC1CC#N (stereo not drawn) + CCN1C(C(=O)NC23CCC(C(=O)O)(CC2)CC3)C(c2cccc(Cl)c2F)C2(C(=O)Nc3cc(Cl)ccc32)C12CCCCC2 , please?
Output: 105

Task: Could you do the same for COc1c(OCCCN2CCOCC2)ccc2c3n(c(=NC(=O)c4cnc(N)nc4)nc12)CCN3 + CCN1C(C(=O)NC23CCC(C(=O)O)(CC2)CC3)C(c2cccc(Cl)c2F)C2(C(=O)Nc3cc(Cl)ccc32)C12CCCCC2 , please?
Output: 17.3
